- Tested on: A/northern shoveler/Egypt/MB.D690OP/2016 (H7N3, 690OP)
- test method notes: organism not typed
- Assay type: cell-based, avian influenza H7N3 virus
- condition info: MDCK, 72 h, read-out: IC50 690OP
I'd appreciate it if you could supply IC50 values for the items below.
Answers are plain numbers, in µM.

Reference set, count: 3
[[record]]
molecule_smiles = "NC12CC3CC(CC(C3)C1)C2"
tested_target = "A/northern shoveler/Egypt/MB.D690OP/2016 (H7N3, 690OP)"
result_number = 6.5

[[record]]
molecule_smiles = "CC(=O)N[C@H]1[C@H]([C@H](O)[C@H](O)CO)OC(C(=O)O)=C[C@@H]1N=C(N)N"
tested_target = "A/northern shoveler/Egypt/MB.D690OP/2016 (H7N3, 690OP)"
result_number = 23.3

[[record]]
molecule_smiles = "CCC(CC)COC(=O)[C@H](C)N[P@](=O)(OC[C@H]1O[C@@](C#N)(c2ccc3c(N)ncnn23)[C@H](O)[C@@H]1O)Oc1ccccc1"
tested_target = "A/northern shoveler/Egypt/MB.D690OP/2016 (H7N3, 690OP)"
result_number = 41.6


Record IC50 per entry; entries follow.
1. NC(=O)c1nc(F)c[nH]c1=O
2. CCOC(=O)C1=C[C@@H](OC(CC)CC)[C@H](NC(C)=O)[C@@H](N)C1

Data returned:
[4.5, 6.46]

---

- System: Madin-Darby canine kidney (MDCK) cells
- condition info: dog
property name: CC50
Please answer using the number first and the unit second.

Data request: What does the record list as CC50 for CCC(CC)COC(=O)[C@H](C)N[P@](=O)(OC[C@H]1O[C@@](C#N)(c2ccc3c(N)ncnn23)[C@H](O)[C@@H]1O)Oc1ccccc1 ?
Data returned: 997 µM

---

- Test system: A/teal/Egypt/MB.D128OP/2015 (H7N3, 128OP)
- test method notes: organism not typed
- Format: cell-based, avian influenza H7N3 virus
- condition info: MDCK, 72 h, read-out: IC50 128OP
I'd appreciate it if you could supply log10(IC50) values for the items below.
// units: µM (pre-log); metric: IC50; scale: log10

[[record]]
molecule_smiles = "CC(=O)N[C@H]1[C@H]([C@H](O)[C@H](O)CO)OC(C(=O)O)=C[C@@H]1N=C(N)N"
tested_target = "A/teal/Egypt/MB.D128OP/2015 (H7N3, 128OP)"
result_number = 1.93

[[record]]
molecule_smiles = "NC12CC3CC(CC(C3)C1)C2"
tested_target = "A/teal/Egypt/MB.D128OP/2015 (H7N3, 128OP)"
result_number = 1.66

[[record]]
molecule_smiles = "CCOC(=O)C1=C[C@@H](OC(CC)CC)[C@H](NC(C)=O)[C@@H](N)C1"
tested_target = "A/teal/Egypt/MB.D128OP/2015 (H7N3, 128OP)"
result_number = 1.93

[[record]]
molecule_smiles = "CCC(CC)COC(=O)[C@H](C)N[P@](=O)(OC[C@H]1O[C@@](C#N)(c2ccc3c(N)ncnn23)[C@H](O)[C@@H]1O)Oc1ccccc1"
tested_target = "A/teal/Egypt/MB.D128OP/2015 (H7N3, 128OP)"
result_number = 1.41


Data request: What does the record list as log10(IC50) for NC(=O)c1nc(F)c[nH]c1=O ?
Data returned: 0.78
